# Assay: binders of probe aFSTL3 on microarray, primary screen, stem cell growth factor project, biochemical, small-molecule microarray, fluorescence 635/667 (AID 1064);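 also: measures binding of the biotinylated anti-FSTL3 antibody to printed compounds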
# Applied Conditions: higher = more signal
Readout Type: composite z-score

> print(dat)
                        structure.as.smiles       readout.type  measurement
1     COCC(=C=CC[C@@H](O)c1ccc(OCCO)cc1)CCO  composite z-score       -0.394
2  COC(=O)[C@@]1(Cc2ccccc2)[C@H]2c3cc(C(=O)N4CCCC4)n(CCSCCO)c3C[C@H]2CN1C(=O)c1ccccc1  composite z-score        0.729
3  COC(=O)[C@@]1(Cc2ccc(OC)cc2)[C@H]2c3cc(C(=O)N4CCCC4)n(Cc4ccc(S(C)(=O)=O)cc4)c3C[C@H]2CN1C(=O)c1ccccc1  composite z-score        0.438

* * *

# Assay: CREB reporter modulators without forskolin, primary screen, cell-based, PC12, CRE-LacZ reporter, unstimulated (AID 1145)
# Applied Conditions: no forskolin, luminescence, 4.5 h, higher = more signal, called active from +8 up or from −8 down
Reported z-score values are given for each entry in this list.
Readout Type: z-score

Compound	Readout Type	Measurement
CCOC(=O)C1=CCN(S(=O)(=O)c2ccc(C)cc2)C1c1ccccc1 (stereo not given)	z-score	-0.284
[N-]=[N+]=Nc1ccccc1C[C@]1(C(=O)NCc2ccccc2)COC(c2ccc(OCCCO)cc2)=N1	z-score	0.101
O=C1C2C=CC(C(O)c3cc(C(F)(F)F)cc(C(F)(F)F)c3)N(Nc3ccccc3F)C2C(=O)N1c1ccccc1 (stereo not given)	z-score	0.626
C=C[C@@H](OC)[C@H](OC(=O)Nc1ccc(OC)cc1)c1ccc(OC)c(O)c1	z-score	0.702
CN1C(=O)C2C=CC(C(O)c3cc(C(F)(F)F)cc(C(F)(F)F)c3)N(NC(=O)OC(C)(C)C)C2C1=O (stereo not given)	z-score	0.0467
COc1ccc([Si](C)(C)[C@H]2[C@H](CCO)O[C@@]3(C(=O)N(Cc4ccc(N5C(=O)c6ccccc6Oc6ccccc65)cc4)c4ccccc43)[C@@H]2C)cc1	z-score	0.222
COc1ccc([Si](C)(C)[C@H]2[C@H](CCO)O[C@@]3(C(=O)N(Cc4ccccc4)c4ccc(N5C(=O)c6ccccc6Oc6ccccc65)cc43)[C@@H]2C)cc1	z-score	0.324
CC1CC/C=C\[C@H]2OC34C=CCN(C(C)(C)C)C(=O)[C@H]3N(C(CO)C(C)C)C(=O)[C@@H]4C2C(=O)O1 (stereo not given in full)	z-score	-0.354
COCCOC(=O)N1C(=O)[C@@]2(c3cc(C#CCNC(N)=O)ccc31)[C@H](c1ccc(O)cc1)N1[C@H](c3ccccc3)[C@H](c3ccccc3)OC(=O)[C@H]1[C@@H]2C(=O)N1CCN(c2ncccn2)CC1	z-score	-0.589
Cc1ccccc1C(O)C1C=CC2C(=O)NC(=O)C2N1Nc1ccc(Cl)cc1Cl (stereo not given)	z-score	1.01
CN1C(=O)C2C(C1=O)C1C=C(CCCO)C2C(c2cccs2)N1Cc1cc2c(cc1Br)OCO2 (stereo not given)	z-score	-0.374
[N-]=[N+]=NCc1ccccc1C[C@@]1(C(=O)N2CCCCC2)N=C(c2ccc(OCCCO)cc2)O[C@@H]1c1ccccc1CN=[N+]=[N-]	z-score	-0.114
CC(C)=CCCC(C)=CC(O)C1C=CC2C(=O)N(c3ccccc3)C(=O)C2N1Nc1ccccc1F (stereo not given)	z-score	-0.0228
COc1cc2c(cc1O)C(c1cccs1)N(Cc1sc3ccccc3c1Cl)CC2 (stereo not given)	z-score	-0.141
O=C1O[C@H](c2ccccc2)[C@H](c2ccccc2)N2[C@H]1[C@@H](C(=O)N1CCCCCCC1)[C@]1(C(=O)Nc3ccc(C#CC4(O)CCCCCC4)cc31)[C@H]2c1ccccc1OCCO	z-score	0.335
